# target.system: HNF4alpha2 (COS-7 nuclear extract) (Homo sapiens, UniProt P41235 1-474)
# Sequence: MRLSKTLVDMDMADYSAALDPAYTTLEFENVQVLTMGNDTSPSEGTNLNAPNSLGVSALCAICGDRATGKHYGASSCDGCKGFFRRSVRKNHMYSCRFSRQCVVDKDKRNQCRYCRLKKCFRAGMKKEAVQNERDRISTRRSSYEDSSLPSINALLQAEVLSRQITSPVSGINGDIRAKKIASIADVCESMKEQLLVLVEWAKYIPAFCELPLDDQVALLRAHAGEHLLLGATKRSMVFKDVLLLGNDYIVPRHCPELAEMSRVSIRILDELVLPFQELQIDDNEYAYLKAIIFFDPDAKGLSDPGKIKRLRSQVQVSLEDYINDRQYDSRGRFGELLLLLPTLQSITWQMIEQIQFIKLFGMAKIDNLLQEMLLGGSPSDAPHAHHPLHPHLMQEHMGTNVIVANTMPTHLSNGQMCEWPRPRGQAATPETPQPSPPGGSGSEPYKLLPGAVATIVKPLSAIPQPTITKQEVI
# test: protein-binding microarray; COS-7 nuclear extract on double-stranded Agilent 4x180k PBM; binding buffer, salt, pH and temperature not given in the material; high values mean tight binding
# experimental.parameters: chain copies: 2; label: 3' end of strand 1 on the slide; dsDNA, one strand shown
The full ranking holds about 18,000 sequences; the median of “log2 normalized intensity” is about 0.39, and the highest 2% start at about 6.6. What follows is part of a selection rich in the highest values, with near analogues and random picks from the rest.
endpoint.label: binding signal (log2 normalized intensity)
Report as a plain number; the unit log2 normalized intensity is understood.

Some solved cases for reference:
chain.sequence	binding signal (log2 normalized intensity)
GTGGGTGCCAAACAAAAAGGGCAAAGGTCAGCCTAGGGAGATTAGAGTATCGGTCGA	8.12
ATGGAGCTGGAGGGCAAAGGTCAGAGGCTGGCCTAGGGAGATTAGAGTATCGGTCGA	6.39
CACTGGGGTCATGGAGCTGGAGGGCAAAGGGCCTAGGGAGATTAGAGTATCGGTCGA	3.25
AAAGGGCAAAGGTCAGCTCATTCCCTAGGGGCCTAGGGAGATTAGAGTATCGGTCGA	6.27

Request: Give its binding signal value. Item: CTGAATGGAATGAAGATACTGGATAACCTTGCCTAGGGAGATTAGAGTATCGGTCGA
Result: 0.695

====

# target.system: HNF4alpha2 (COS-7 nuclear extract) (Homo sapiens, UniProt P41235 1-474)
# Sequence: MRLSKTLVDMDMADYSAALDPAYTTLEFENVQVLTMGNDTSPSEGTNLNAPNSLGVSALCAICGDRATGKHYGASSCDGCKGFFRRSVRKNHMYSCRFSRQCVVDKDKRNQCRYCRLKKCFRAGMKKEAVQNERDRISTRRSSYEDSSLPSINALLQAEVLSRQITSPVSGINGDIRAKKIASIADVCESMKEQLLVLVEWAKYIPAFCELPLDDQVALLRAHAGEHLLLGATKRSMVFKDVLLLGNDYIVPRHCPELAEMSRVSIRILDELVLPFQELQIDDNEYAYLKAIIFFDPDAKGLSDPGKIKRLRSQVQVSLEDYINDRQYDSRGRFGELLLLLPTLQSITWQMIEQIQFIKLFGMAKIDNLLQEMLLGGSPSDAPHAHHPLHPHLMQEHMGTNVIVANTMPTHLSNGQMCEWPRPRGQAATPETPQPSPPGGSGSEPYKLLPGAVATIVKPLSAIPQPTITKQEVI
# test: protein-binding microarray; COS-7 nuclear extract on double-stranded Agilent 4x180k PBM; binding buffer, salt, pH and temperature not given in the material; high values mean tight binding
# experimental.parameters: chain copies: 2; label: 3' end of strand 1 on the slide; dsDNA, one strand shown
Over roughly 18,000 sequences, “log2 normalized intensity” has its median near 0.39; the highest 2% begin near 6.6. This is one part of a sample in which the highest values are shown more often than they occur.
endpoint.label: binding signal (log2 normalized intensity)
// note: answer is a bare numeric in log2 normalized intensity

// worked examples, binding signal included
chain.sequence	experimental.result
CGACCTTTGCTCCCGACTCTGAGGCTCCATGCCTAGGGAGATTAGAGTATCGGTCGA	4.94
TCTTCAGGCTGGGGCCCCATCGACCTTTGCGCCTAGGGAGATTAGAGTATCGGTCGA	6.79
AGACATCGACCTTTGTGGGCTTCAGACATTGCCTAGGGAGATTAGAGTATCGGTCGA	1.71
CCATCAGTGGACTTTGACCTTGTTTTCAATGCCTAGGGAGATTAGAGTATCGGTCGA	9.03
GCCAGCCAGGGCCACCCATCAGTGGACTTTGCCTAGGGAGATTAGAGTATCGGTCGA	6.63
GCTCTAGACATCGACCTTTGTGGGCTTCAGGCCTAGGGAGATTAGAGTATCGGTCGA	2.69

Request: Requested read-out: binding signal. Entry: CCCATCGACCTTTGCTCCCGACTCTGAGGCGCCTAGGGAGATTAGAGTATCGGTCGA
Result: 5.07

Request: // returns reported binding signal for input TGTCACACACAGACTTGGGTTCAAAGAGCAGCCTAGGGAGATTAGAGTATCGGTCGA
Result: 3.94

Request: Would you mind telling me what binding signal value was observed for AGACCTTTGACATCACCTAACTTGTGGCTGGCCTAGGGAGATTAGAGTATCGGTCGA ?
Result: 0.674
